# Target System: T1, Recombinant human HER2 ectodomain (human, UniProt P04626 23-652, biotinylated on primary amines (for SPR and crude extract ELISA))
# T1 construct: extracellular domain; also called ErbB2; ectodomain of human HER2; not shown: Flag tag
# Procedure Details: SPR (ProteOn); biotinylated human HER2 on neutravidin chip, monovalent DARPin injected
pKd: −log10 of the molar value.
Reported pKd values for a set of binders

{"Binder": "DARPin #57 (designed binder, monovalent) MRGSHHHHHHGSDLGIKLLWAAAQGQDDEVRILLAAGADVNAKDFQGVTPLHIAAQSGHLEVVEVLLKAGADVNAKDVTGDTPLHLAAQHGHLEIVEVLLKAGADVNAQDERGWTPADLAADWGHEDIAEVLQKLN", "pKd": 10.22}
{"Binder": "DARPin #53 (designed binder, monovalent) MRGSHHHHHHGSDLGAKLLWAAAKGQDDEVRILLAAGADVNAKDWEGVTPLHIAAHAGHLEIVEVLLKAGADVNAKDIIGWTPLHSAAVYGHLEIVEVLLKAGADVNAQDWYGTTPADLAAWWGHEDIAVVLQKLN", "pKd": 8.84}
{"Binder": "DARPin #18 (designed binder, monovalent) MRGSHHHHHHGSDLGKKLLEAARAGQDDEVRILMANGADVNAKDEYGLTPLYLATAHGHLEIVEVLLKNGADVNAVDAIGFTPLHLAAFIGHLEIAEVLLKHGADVNAQDKFGKTAFDISIGNGNEDLAEILQKLN", "pKd": 9.47}
{"Binder": "DARPin #7 (designed binder, monovalent) MRGSHHHHHHGSDLGIKLLFAAAKGQDDEVRILLAAGADVNAKDFEGYTPLHVAAYDGHLEIVEVLLKAGADVNAKDSQGRTPLHEAAYSGHLEIVEVLLKAGADVNAQDDAGETPADLAAAWGHEDIAEVLQKLN", "pKd": 8.99}
{"Binder": "DARPin #56 (designed binder, monovalent) MRGSHHHHHHGSDLGQKLLIAASRGQDDEVRILLAAGADVNAKDFQGVTPLHIAAQSGHLEIVEVLLKAGADVNAKDVTGDTPLHLAAQHGHLEIVEVLLKAGADVNAQDERGWTPTDLAADWGHEDIAEVLQKLN", "pKd": 8.70}
